Where these numbers come from: paper PMC11243625

- System: A549
- assay notes: WST-1 test, lung cancer cells
- Assay type: cell-based, human
- particulars: Homo sapiens, A549, 72 h, read-out: IC50 A-549
pIC50: −log10 of the molar value.
measurement name: pIC50

Query: # lookup: pIC50 of CN(Cc1cn(Cc2ccc([N+](=O)[O-])cc2)nn1)S(=O)(=O)c1cccc2cccnc12 [Compound 7b]
Response: < 3.30

Query: Please do the same for CN(Cc1cn(Cc2ccc(F)cc2)nn1)S(=O)(=O)c1cccc2cccnc12 [Compound 6b] as well.
Response: < 3.30

Query: Another compound to check: CN(Cc1cn(CSc2ccccc2)nn1)S(=O)(=O)c1cccc2cccnc12 [Compound 8b]
Response: < 3.30

---

- Tested on: SKOV-3
- assay notes: WST-1 test, ovarian cancer cells
- Assay type: cell-based, human
- particulars: Homo sapiens, SK-OV-3, 72 h
- Protocol: Hybrids 4–14 were tested as anticancer agents against four human cancer cell lines: colon cancer (Caco-2), glioblastoma (SNB-19), lung cancer (A549), ovarian cancer (SKOV-3), and normal human dermal fibroblasts (NHDFs). Cisplatin was used as the reference substance. […] Cell cultures were performed in 96-well plates (Nunc Thermo Fisher Scientific, Waltham, MA, USA). […] Absorbance was measured at λ = 450 nm using a UVM340 microplate reader (Biogenet, Józefów, Poland). […]
Measured IC50 values are reported for all entries that follow.

# compound, measured value
rows = [
    ("O=S(=O)(NCc1cn(Cc2ccc(F)cc2)nn1)c1cccc2cccnc12", "> 500 µM"),
    ("CN(Cc1cn(Cc2ccc([N+](=O)[O-])cc2)nn1)S(=O)(=O)c1cccc2cccnc12", "> 500 µM"),
    ("CCCCn1cc(CN(C)S(=O)(=O)c2cccc3cccnc23)nn1 [Compound 12b]", "80.4 µM"),
    ("C=C(Cn1cc(CN(C)S(=O)(=O)c2cccc3cccnc23)nn1)[C@@H]1CC[C@]2(COC(C)=O)CC[C@]3(C)[C@H](CC[C@@H]4[C@@]5(C)CC[C@H](OC(C)=O)C(C)(C)[C@@H]5CC[C@]43C)[C@@H]12 [Compound 14b]", "1.09 µM"),
    ("N#Cc1ccc(Cn2cc(CNS(=O)(=O)c3cccc4cccnc34)nn2)cc1", "> 500 µM"),
    ("CN(Cc1cn(Cc2ccccc2)nn1)S(=O)(=O)c1cccc2cccnc12", "66.2 µM"),
    ("C=C(Cn1cc(CNS(=O)(=O)c2cccc3cccnc23)nn1)[C@@H]1CC[C@]2(COC(C)=O)CC[C@]3(C)[C@H](CC[C@@H]4[C@@]5(C)CC[C@H](OC(C)=O)C(C)(C)[C@@H]5CC[C@]43C)[C@@H]12 [Compound 14a]", "> 500 µM"),
    ("CN(Cc1cn(CSc2ccccc2)nn1)S(=O)(=O)c1cccc2cccnc12", "> 500 µM"),
    ("O=S(=O)(NCc1cn(Cc2ccccc2)nn1)c1cccc2cccnc12", "> 500 µM"),
]

Alright, here's another compound for you.
Query: What does the data say about its IC50? Entry: CN(Cc1cn(Cc2ccc(F)cc2)nn1)S(=O)(=O)c1cccc2cccnc12
Response: > 500 µM
